# Test system: MCF7 breast
# assay-comment: NCI-60 one-dose screen, 48 h (100 = growth as untreated, 0 = no growth, -100 = all killed)
# measurement-conditions: 10 µM unless noted
This is part of a sample that, as a whole, favours compounds with a hit. Of some 83,000 tested, about 20% had one in any assay.
Lab note: compare growth against 40%. Equal or greater, write Condition met. Smaller, write Condition not met.

Example entries and their recorded answers appear below.
{"compound": "O=C1c2ccccc2C(=O)c2c(NCCN=Cc3c(O)ccc4ccccc34)cccc21", "label-value": "Condition met"}
{"compound": "CC(C)(C)OC(=O)N1CCN(CCn2cc(C(F)(F)F)c3c(Cl)ncnc32)CC1", "label-value": "Condition met"}

Assess whether reported growth for "CCOc1ccc(NC2=C(Cl)C(=O)c3ccccc3C2=O)cc1" sits at 40% or higher. Condition met

Quick check, growth >= 40%? COc1cc(NC(C)CCCN2C(=O)c3ccccc3C2=O)c2nc(C)ccc2c1OC (centres undefined) Condition met

In plain terms: is recorded growth at least 40% for "c1ccc(CNCCN(CCNCc2ccccn2)Cc2ccc3ccccc3c2)nc1" ? Condition not met

growth >= 40% for "O=c1cc(Cl)[nH]c(=O)[nH]1" ? Condition met

Form field: growth at least 40%? Entry: CCC(N)(C(=O)O)c1ccc(F)cc1 (centres undefined) Condition met

Hello, I need to know if "Cc1cc2nc(-c3c(N)ncc(C#N)c3-c3ccc(Cl)cc3)[nH]c2cc1C" has measured growth not below 40%. Thanks! Condition met

Is reported growth greater than or equal to 40% here: "Clc1ccc2c(c1)nnn1c3ncccc3c(Br)c21" Condition met

Is growth at least 40%? Consider "C=C1C(=O)O[C@H]2[C@H]1CC/C(C(=O)NCCOCCOCC(=O)Nc1ccc(OC)c(C(N)=O)c1O)=C\CC[C@@]1(C)O[C@@H]21" Condition met

Form field: growth at least 40%? Entry: "COc1ccc(-c2nnc(SCC(=O)Nc3ccc(C(=O)/C=C/c4ccccc4)cc3)o2)cc1OC" Condition met

Assess whether reported growth for "NS(=O)(=O)c1ccc(-n2nc(-c3ccc(Cl)cc3)ccc2=O)cc1" sits at 40% or higher. Condition met

###

# Test system: NCI-H226 lung
# assay-comment: NCI-60 one-dose screen, 48 h (100 = growth as untreated, 0 = no growth, -100 = all killed)
# measurement-conditions: 10 µM unless noted
About 83,000 compounds went through this panel and 20% of them were active in at least one assay; those are over-represented in the sample as a whole.
measured-attribute: growth (%)
I only need the number, in %, no unit after it.

{"compound": "C/C(=N\\N=C1/SCC(=O)N1c1ccccc1)c1ccco1", "recorded-result": 124}
{"compound": "CN(C)c1ccc(/C=N/N=C(N)N)cc1", "recorded-result": 82.2}
{"compound": "O=C1OC(N(Cc2ccc(Cl)cc2)c2ccccc2)c2ccccc21 (stereo not given)", "recorded-result": 92.9}
{"compound": "Cc1c(NC(=O)c2sc3nc4c(cc3c2N)CN(Cc2ccccc2)CC4)cccc1C(F)(F)F", "recorded-result": 65.7}
{"compound": "O=C(NCCNc1nccc(-c2c(-c3cccc(O)c3)nc3sccn23)n1)c1ccccc1O", "recorded-result": 80.5}

Shifting focus to the compound that follows.
What value of measured growth is listed for "COC(=O)c1oc2c(C(=O)/C=C/c3ccc(OC)cc3)c(OCCN3CCOCC3)ccc2c1C" ? -5.76

###

# System: HCT-116 colon
# assay-comment: NCI-60 one-dose screen, 48 h (100 = growth as untreated, 0 = no growth, -100 = all killed)
# measurement-conditions: 10 µM unless noted
Compounds without any hit were thinned out: in the full panel of roughly 83,000, 20% have a hit.
# key: entry, value: growth
Output spec: scalar in %, unitless text.

{"compound": "CNCCCOc1c(Br)cc(CCNC(=O)/C(Cc2ccc(OC)c(Br)c2)=N/O)cc1Br", "value-unit": "%", "recorded-result": 19.8}

Which growth is reported for this compound? "O=C(Nc1cccc([N+](=O)[O-])c1)c1ccc2ccccc2c1O" 59.4

I'd like to know its growth. The compound in question is "c1ccc(OCC[P+](c2ccccc2)(c2ccccc2)c2ccccc2)cc1" 15.6

Suppose we examine the compound "CC(C)(C)OC(=O)N1CCN(CCn2cc(C(F)(F)F)c3c(Cl)ncnc32)CC1" ; what growth value has been reported? 12.1

Query: growth; subject: "C[C@H]1C=C(C[C@@H](O)CCCCCCCCCC[C@@H](O)[C@H]2CCC(=O)O2)C(=O)O1" 87.9

Query: growth; subject: "O=c1c2ccccc2sc2c(N3CCCC3)nc3ccccc3c12" 78

Quick one: growth for "C=C1C(=O)O[C@H]2[C@H]1CC/C(C(=O)NCCOCCOCC(=O)Nc1ccc(OC)c(C(N)=O)c1O)=C\CC[C@@]1(C)O[C@@H]21" ? 81.2

Need growth of COc1cc([C@@H]2c3cc4c(cc3C(OC3O[C@@H]5COC(C)O[C@H]5[C@H](O)[C@H]3O)C3COC(=O)[C@@H]32)OCO4)cc(OC)c1O (some centres undefined) , thanks. 41.7

Dear colleague, I am looking for the recorded growth of the following compound: "COc1cc(-c2nc(N)n(CC(=O)Nc3ccc(/C(C)=N\O)cc3)n2)cc(OC)c1OC" 101

Would you mind telling me what growth value was observed for "O=C(Nc1cccc(-n2ccc3c(NC(=O)c4ccccc4)nccc32)c1)c1cccc(C(F)(F)F)c1" ? 1.3

For "C=C1C(=O)O[C@H]2[C@H]1CC/C(COC(=O)n1ccnc1C)=C\CC[C@@]1(C)O[C@@H]21" , what is its reported growth? 89

Look up growth for this compound: "CC(C)[C@@H]1NC(=O)[C@]2(C)CSC(=N2)c2ccnc(c2)CNC(=O)C[C@@H](/C=C/CCS)OC1=O" -39.2

###

Recorded growth by entry
# System: A498 renal
# assay-comment: NCI-60 one-dose screen, 48 h (100 = growth as untreated, 0 = no growth, -100 = all killed)
# measurement-conditions: 10 µM unless noted
This is part of a sample that, as a whole, favours compounds with a hit. Of some 83,000 tested, about 20% had one in any assay.
Give just the number in %; leave the unit off.

{"compound": "CCNc1cc(S(=O)(=O)O)ccc1C", "growth, %": 102}

Form field: growth recorded for "Nc1nc(Cl)c2c(C(F)(F)F)cn(CC3CCNCC3)c2n1" with A498 renal (enter value) 107

Write down the reported growth of "COc1ccccc1S(=O)(=O)Nc1ccc2c3c(cc(-c4cnn(C5CC5)c4)nc13)C(=O)N2C" , test system: A498 renal. 59.3

Please state recorded growth (tested on A498 renal) of "Cc1cc(SCc2ccc(Cl)cc2Cl)nc(SCc2ccc(Cl)cc2Cl)n1" 98.7

Provide value of growth for this record tested with A498 renal: CCC1S/C(=N\N=C(/C)c2cccs2)N(c2ccccc2)C1=O (configuration not stated) 108

Query the reported growth for A498 renal; item: "O=C(Nc1ccc(-n2cc(-c3ccncc3)c(-c3ccc(O)c(Cl)c3)n2)cc1)Nc1cccc(Cl)c1Cl" 68.7

Value wanted: growth (A498 renal) of entry "Fc1cccc(F)c1C#Cc1ccc2cccnc2c1" 99.7

Observed growth on A498 renal for CC1CCc2cc(F)cc3c(=O)c(C(=O)O)cn1c23 (configuration not stated) , please. 88.1

# value lookup — system A498 renal, readout growth, item "CC(=O)CC/C=C(\C)[C@H](O)[C@H](C)C(=O)O[C@H]1C[C@H](C)C=C2C=C[C@@]3(C)O[C@@H](O)CC(=O)[C@]3(C)[C@H]21" -66.2

###

Below, each of the compounds is paired with its reported growth value.
# System: HOP-62 NSCLC
# assay-comment: NCI-60 one-dose screen, 48 h (100 = growth as untreated, 0 = no growth, -100 = all killed)
# measurement-conditions: 10 µM unless noted
About 83,000 compounds went through this panel and 20% of them were active in at least one assay; those are over-represented in the sample as a whole.
Report as a plain number; the unit % is understood.

Use these answered entries as a reference point.
{"cpd-smiles": "Nc1nc(Cl)cc(NCCCCNc2cc(Cl)nc(N)n2)n1", "value-unit": "%", "growth": 107}
{"cpd-smiles": "O=S(=O)(Nc1cccc2cc(OS(=O)(=O)c3ccccc3)ccc12)c1ccccc1", "value-unit": "%", "growth": 46.3}
{"cpd-smiles": "CCc1c(C)c2cc3c(c(C)c2oc1=O)OCC(=O)N3", "value-unit": "%", "growth": 73.5}
{"cpd-smiles": "Cc1ccc(=O)n(-c2ccc(Br)cc2F)c1", "value-unit": "%", "growth": 94}
{"cpd-smiles": "COc1ccccc1S(=O)(=O)Nc1ccc2c3c(cc(-c4cnn(C)c4)nc13)C(=O)N2C", "value-unit": "%", "growth": 33.3}
{"cpd-smiles": "COc1cccc(-c2nc3sccn3c2-c2ccnc(NCCNC(=O)c3ccccc3)n2)c1", "value-unit": "%", "growth": 111}

Which measured growth value corresponds to "COc1ccc(Cl)cc1NC(=O)c1cc2c([nH]1)-c1nc(N)sc1CCC2" ? 102

What value of growth has been reported for the following compound? "COc1ccc(-c2c(NC(=O)Nc3ccc(Cl)c(C(F)(F)F)c3)cnn2-c2ccc(S(N)(=O)=O)cc2)cc1" 53.5

Find the recorded growth belonging to "O=C(O)c1ccccc1C(=O)c1ccc(I)cc1" and report it. 88.7

Quick one: growth of "C/C(=N/NC(=O)Cn1c2ccccc2c2ccncc21)c1cccs1" ? 100
